test: LNP zeta potential; type: physicochemical; details: mRNA LNP

COMPOUND | OUTPUT UNIT | Zeta potential (mV)
CCCCCCCC(C(=O)NCCCCCCCCCC(=O)OC(CCCCCC)CCCCCC)N(CCOC(=O)CCN1CCCC1)C(=O)CCCCCCCCCC(=O)OC(CCCCCC)CCCCCC (stereo not drawn) [Compound B25] | mV | −3.38
CCCCCCC(CCCCCC)OC(=O)CCCCCCCCCNC(=O)C(CCCCCCCCCC(=O)OC(CCCCCC)CCCCCC)N(CCCN(CC)CC)C(=O)CCCN(CC)CC (stereo not drawn) [Compound E7] | mV | −16.13
CCCCCCCCNC(=O)C(CCCCCCCC)N(CCCN(CCO)CCO)C(=O)CCCCCCC(=O)OC(CCCCCCCC)CCCCCCCC (stereo not drawn) [Compound B26] | mV | −1.65

====

assay: LNP size and PDI by dynamic light scattering; assay type: physicochemical; details: mRNA LNP, cationic lipid/DSPC/cholesterol/PEG-lipid 50:10:38.5:1.5
Item-by-item account of PDI

MOLECULE | PDI
CCCCCCCCC(C(=O)NCCCCCCCCCC(=O)OCC1CC=CCC1)N(CCCN(C)C)C(=O)CCCCCCCCCC(=O)OC(CCCCCC)CCCCCC (stereo not drawn) | 0.113
CCCCCCCCNC(=O)C(CCCC)N(CCCN(C)C)C(=O)CCCCCCC(=O)OC(CCCCCCCC)CCCCCCCC (stereo not drawn) | 0.11
CCCCCCC(CCCCCC)OC(=O)CCCCCCCCCNC(=O)C(CCCCCCCCCC(=O)OC(CCCCCC)CCCCCC)N(CCCN(C)CCO)C(=O)CCCN(C)CCO (stereo not drawn) | 0.183
CCCCCCCCCCCOC(=O)CCCCCN(CCO)CCCCCCCC(=O)OC(CCCCCCCC)CCCCCCCC [SM-102, reference compound] | 0.058
CCCCCCCCCCOCCCCCCCC(=O)N(CCCN(C)C)C(CCCCCCCC)C(=O)NCCCCCCCC (stereo not drawn) | 0.19
CCCCCCCCC(CCCCCC)COC(=O)CCCCCCCCCNC(=O)C(CCCCCCCC)N(CCCN1CCCC1)C(=O)CCCCCCCCCC(=O)OCC(CCCCCC)CCCCCCCC (stereo not drawn) | 0.202

====

experiment: LNP zeta potential; format: physicochemical; details: mRNA LNP
PROPERTY: Zeta potential (mV)

COMPOUND | PROPERTY | OUTPUT UNIT | OBSERVED RESULT
CCCCCCCCC(C(=O)NCCCCCCCCCC(=O)OC(CCCC)CCCCCC)N(CCCN(C)C)C(=O)CCCCCCCCCC(=O)OC(CCCC)CCCCCC (stereo not drawn) | Zeta potential (mV) | mV | 2.90
CCCCCCCCNC(=O)C(CCCCCCC)N(CCCN(C)C)C(=O)CCCCCCC(=O)OC(CCCCCCCC)CCCCCCCC (stereo not drawn) | Zeta potential (mV) | mV | 0.47
CCCCCCCC(C(=O)NCCCCCCCCCC(=O)OC(CCCCCC)CCCCCC)N(CCCN(C)CCO)C(=O)CCCCCCCCCC(=O)OC(CCCCCC)CCCCCC (stereo not drawn) | Zeta potential (mV) | mV | −7.30
CCCCCCCC(C(=O)NCCCCCCCCCC(=O)OC(CCCCCC)CCCCCC)N(CCCN(CCO)C1CCCCC1)C(=O)CCCCCCCCCC(=O)OC(CCCCCC)CCCCCC (stereo not drawn) | Zeta potential (mV) | mV | 2.73
CCCCCCCC(C(=O)NCCCCCCCCCC(=O)OC(CCCCCC)CCCCCC)N(CCOC(=O)CCN(C)C)C(=O)CCCCCCCCCC(=O)OC(CCCCCC)CCCCCC (stereo not drawn) | Zeta potential (mV) | mV | −9.96
CCCCCCCCNC(=O)C(CCCCCCCC)N(CCCN(C)C)C(=O)CCCCCC(=O)NC(CCCCCCC)CCCCCCC (stereo not drawn) | Zeta potential (mV) | mV | 1.89
CCCCCCCC(C(=O)NCCCCCCCCCC(=O)OC(CCCCCC)CCCCCC)N(CCCN(CCO)CCO)C(=O)CCCCCCCCCC(=O)OCC12CC3CC(CC(C3)C1)C2 (stereo not drawn) | Zeta potential (mV) | mV | 10.58
CCCCCCC(CCCCCC)OC(=O)CCCCCCCCCNC(=O)C(CCCCCCCCCC(=O)OC(CCCCCC)CCCCCC)N(CCCN(CCO)CCO)C(=O)CCCN(C)CCO (stereo not drawn) [Compound E2] | Zeta potential (mV) | mV | −9.45
CCCCCCCCNC(=O)C(CCCCCCCC)N(CCCN(CC)CC)C(=O)CCCCCCC(=O)OC(CCCCCCCC)CCCCCCCC (stereo not drawn) | Zeta potential (mV) | mV | 0.51
CCCCCCCC(C(=O)NCCCCCCCCCC(=O)OC(CCCCCC)CCCCCC)N(CCCN(CCO)CCO)C(=O)CCCCCCCCCC(=O)OCC1CC=CCC1 (stereo not drawn) | Zeta potential (mV) | mV | 6.08
CCCCCCC(CCCCCC)OC(=O)CCCCCCCCCNC(=O)C(CCCCCCCCCC(=O)OC(CCCCCC)CCCCCC)N(CCCN1CCN(CO)CC1)C(=O)CCCN1CCN(CCO)CC1 (stereo not drawn) | Zeta potential (mV) | mV | 0.85
CCCCC/C=C\C/C=C\CCCCCCCC(=O)N(CCCN1CCCC1)CC(=O)NCCCCCCCCCCCCCC | Zeta potential (mV) | mV | 11.03

====

assay: LNP size and PDI by dynamic light scattering; format: physicochemical; conditions: mRNA LNP, cationic lipid/DSPC/cholesterol/PEG-lipid 50:10:38.5:1.5
Some molecules, each annotated with its measured PDI.

MOLECULE | PDI
CCCCCCCC(C(=O)NCCCCCCCCCC(=O)OC(CCCCCC)CCCCCC)N(CCN(CCO)C1CCCCC1)C(=O)CCCCCCCCCC(=O)OC(CCCCCC)CCCCCC (stereo not drawn) | 0.182
CCCCCCCCC(C(=O)NCCCCCCCCCC(=O)OCCCCCC)N(CCCN(C)C)C(=O)CCCCCCCCCC(=O)OCCCCCC (stereo not drawn) | 0.183
CCCCCCCC(C(=O)NCCCCCCCCCC(=O)OC(CCCCCC)CCCCCC)N(CCCN(C)CCO)C(=O)CCCCCCCCCC(=O)OC(CCCCCC)CCCCCC (stereo not drawn) | 0.152

====

The entries below are paired with their reported Encapsulation efficiency (%).
experiment: LNP encapsulation efficiency (Quant-it Ribogreen); format: physicochemical; conditions: mRNA LNP, cationic lipid/DSPC/cholesterol/PEG-lipid 50:10:38.5:1.5

COMPOUND | Encapsulation efficiency (%)
CCCCCCCC(C(=O)NCCCCCCCCCC(=O)OC(CCCCCC)CCCCCC)N(CCCN(C)C)C(=O)CCCCCCCCCC(=O)OCC12CC3CC(CC(C3)C1)C2 (stereo not drawn) | 53.24%
CCCCCCCC(C(=O)NCCCCCCCCCC(=O)OC(CCCCCC)CCCCCC)N(CCCn1ccnc1)C(=O)CCCCCCCCCC(=O)OC(CCCCCC)CCCCCC (stereo not drawn) | 93.73%
CCCCCCCC(C(=O)NCCCCCCCCCC(=O)OC(CCCCCC)CCCCCC)N(CCCN(CCO)C1CCC1)C(=O)CCCCCCCCCC(=O)OC(CCCCCC)CCCCCC (stereo not drawn) | 46.91%
CCCCCCCC(C(=O)NCCCCCCCCCC(=O)OC(CCCCCC)CCCCCC)N(CCCN(CCO)C1CCCCC1)C(=O)CCCCCCCCCC(=O)OC(CCCCCC)CCCCCC (stereo not drawn) | 89.01%
CCCCCCCCNC(=O)C(CCCCCCCC)N(CCN(CCO)CCO)C(=O)CCCCCCC(=O)OC(CCCCCCCC)CCCCCCCC (stereo not drawn) | 93.95%
CCCCCCCC(C(=O)NCCCCCCCCCC(=O)OC(CCCCCC)CCCCCC)N(CCOC(=O)CCN(C)C)C(=O)CCCCCCCCCC(=O)OC(CCCCCC)CCCCCC (stereo not drawn) | 93.57%
CCCCCCCCNC(=O)C(CCCCCCCC)N(CCCN(CC)CC)C(=O)CCCCCCC(=O)OC(CCCCCCCC)CCCCCCCC (stereo not drawn) | 94.69%
CCCCCCCC(C(=O)NCCCCCCCCCC(=O)OC(CCCCCC)CCCCCC)N(CCNCCO)C(=O)CCCCCCCCCC(=O)OC(CCCCCC)CCCCCC (stereo not drawn) | 75.47%
CCCCCCCC(C(=O)NCCCCCCCCCC(=O)OC(CCCCCC)CCCCCC)N(CCCN1CCCC1)C(=O)CCCCCCCCCC(=O)OCC1CC=CCC1 (stereo not drawn) | 93.54%
CCCCCCCCNC(=O)C(CCCCCCCC)N(CCN(C)CCO)C(=O)CCCCCCC(=O)OC(CCCCCCCC)CCCCCCCC (stereo not drawn) | 95.03%
CCCCCCCC(C(=O)NCCCCCCCCCC(=O)OC(CCCCCC)CCCCCC)N(CCCN(CCO)CCO)C(=O)CCCCCCCCCC(=O)OCC1CC=CCC1 (stereo not drawn) | 95.00%
CCCCC/C=C\C/C=C\CCCCCCCCC(CCCCCCCC/C=C\C/C=C\CCCCC)OC(=O)CCCN(C)C [DLin-MC3, reference compound] | 95.24%
